The values you see were collected from paper PMC5596636.

target: UniProt:P33033; assay: cAMP-based β-galactosidase reporter agonist assay in HEK293 cells, mMC3R
Sequence (P33033 whole entry): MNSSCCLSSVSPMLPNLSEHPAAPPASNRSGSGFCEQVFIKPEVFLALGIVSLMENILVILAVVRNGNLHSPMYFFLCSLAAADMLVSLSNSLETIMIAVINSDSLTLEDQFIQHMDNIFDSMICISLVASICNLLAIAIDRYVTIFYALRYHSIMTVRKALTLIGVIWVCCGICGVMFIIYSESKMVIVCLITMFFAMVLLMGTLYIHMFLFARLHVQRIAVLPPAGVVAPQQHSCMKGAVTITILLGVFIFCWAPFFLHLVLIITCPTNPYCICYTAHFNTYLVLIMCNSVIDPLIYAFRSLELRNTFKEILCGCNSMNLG
measuredParameter: EC50 (µM)

>  <compound>
CSCC[C@H](NC(=O)[C@H](CO)NC(=O)[C@H](Cc1ccc(O)cc1)NC(=O)[C@H](CO)NC(C)=O)C(=O)N[C@@H](CCC(=O)O)C(=O)N[C@@H](C)C(=O)N[C@@H](Cc1ccccc1)C(=O)N[C@@H](CCCNC(=N)N)C(=O)N[C@@H](Cc1c[nH]c2ccccc12)C(=O)NCC(=O)N[C@@H](CCCCN)C(=O)N1CCC[C@H]1C(=O)N[C@H](C(N)=O)C(C)C [[Ala^6]α-MSH]

>  <measuredParameter>
EC50

>  <recordedNumber>
4.27

$$$$
>  <compound>
CSCC[C@H](NC(=O)[C@H](CO)NC(=O)[C@H](Cc1ccc(O)cc1)NC(=O)[C@H](CO)NC(C)=O)C(=O)N[C@@H](CCC(=O)O)C(=O)N[C@@H](Cc1c[nH]cn1)C(=O)N[C@@H](Cc1ccccc1)C(=O)N[C@@H](CCCNC(=N)N)C(=O)N[C@@H](Cc1c[nH]c2ccccc12)C(=O)NCC(=O)N[C@@H](CCCCN)C(=O)N[C@@H](C)C(=O)N[C@H](C(N)=O)C(C)C [[Ala^12]α-MSH]

>  <measuredParameter>
EC50

>  <recordedNumber>
0.043

$$$$
>  <compound>
CSCC[C@H](NC(=O)[C@H](CO)NC(=O)[C@H](Cc1ccc(O)cc1)NC(=O)[C@H](CO)NC(C)=O)C(=O)N[C@@H](CCC(=O)O)C(=O)N[C@@H](Cc1c[nH]cn1)C(=O)N[C@@H](Cc1ccccc1)C(=O)N[C@@H](C)C(=O)N[C@@H](Cc1c[nH]c2ccccc12)C(=O)NCC(=O)N[C@@H](CCCCN)C(=O)N1CCC[C@H]1C(=O)N[C@H](C(N)=O)C(C)C [[Ala^8]α-MSH]

>  <measuredParameter>
EC50

>  <recordedNumber>
0.67

$$$$
